The measured values listed here are drawn from paper PMC9238401.

The entries below come with measured Percent hemolysis at 375 μM values attached.
# Tested on: horse erythrocytes
# Test conditions: TRIS buffer pH 7.2, 1 h, 37°C, absorbance 540 nm, relative to melittin 100 μM, ± confidence interval (α = 0.05)
Value type: Percent hemolysis at 375 μM

> print(dat)
                                  substance       result
1  KKLFKKILKYL-RINSAKDDAAGLQIA-OH [BP100-flg15]     6 ± 1.6%
2                         YGIHTH-NH2 [PIP1]     1 ± 0.1%
3   H-KKVVFWVKFKFKLFKKILKVL-NH2 [KSLW-BP13]   82 ± 10.4%
4  FKLFKKILKVL-KKLfKKILKYL-NH2 [BP13-BP143]  100 ± 10.6%
